# Target Entity: GAL4 DBD-CfEcR(DEF)/VP16AD-MmRXRE (Choristoneura fumiferana)
# Construct: The wild-type D, E, and F domains from spruce budworm Choristoneura fumiferana EcR (“CfEcR-DEF”)
# Protocol Summary: 13B3 assay: luciferase reporter gene induction in stable CHO clone 13B3
Assay Readout: EC50 (µM)
Write down the numeric answer in µM and omit the unit.

Would you kindly share the measured EC50 for CCC1(C)ON=C(c2cc(C)cc(C)c2)N1NC(=O)c1cc2ccccc2s1 (centres unmarked) ? 3.46

Would you kindly share the measured EC50 for CCc1c(OC)cccc1C(=O)NN1C(c2cc(C)cc(C)c2)=NOC12CCCC2 ? 3.57

---

# Target Entity: Bombyx mori EcR (VBE) (Bombyx mori)
# Construct: expressed in transfected cells; host or cells: Human HEK-293 cells, retrovirally infected, clone Z3
# Sequence (P49881 86-606 limits assumed): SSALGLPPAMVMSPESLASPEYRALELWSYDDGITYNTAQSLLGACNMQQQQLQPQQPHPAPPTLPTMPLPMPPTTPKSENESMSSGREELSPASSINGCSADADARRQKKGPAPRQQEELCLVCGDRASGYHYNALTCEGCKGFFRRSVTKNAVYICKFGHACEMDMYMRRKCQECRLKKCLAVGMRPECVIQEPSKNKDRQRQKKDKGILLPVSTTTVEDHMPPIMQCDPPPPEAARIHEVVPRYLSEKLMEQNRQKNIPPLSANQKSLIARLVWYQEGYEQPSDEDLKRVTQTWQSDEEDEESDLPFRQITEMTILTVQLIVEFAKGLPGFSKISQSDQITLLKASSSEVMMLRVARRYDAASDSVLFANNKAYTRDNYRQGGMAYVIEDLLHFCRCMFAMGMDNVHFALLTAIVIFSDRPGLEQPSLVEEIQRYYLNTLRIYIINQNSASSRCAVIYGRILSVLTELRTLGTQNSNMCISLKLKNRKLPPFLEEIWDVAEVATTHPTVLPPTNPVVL
# Sequence (P19793 1-462 partner): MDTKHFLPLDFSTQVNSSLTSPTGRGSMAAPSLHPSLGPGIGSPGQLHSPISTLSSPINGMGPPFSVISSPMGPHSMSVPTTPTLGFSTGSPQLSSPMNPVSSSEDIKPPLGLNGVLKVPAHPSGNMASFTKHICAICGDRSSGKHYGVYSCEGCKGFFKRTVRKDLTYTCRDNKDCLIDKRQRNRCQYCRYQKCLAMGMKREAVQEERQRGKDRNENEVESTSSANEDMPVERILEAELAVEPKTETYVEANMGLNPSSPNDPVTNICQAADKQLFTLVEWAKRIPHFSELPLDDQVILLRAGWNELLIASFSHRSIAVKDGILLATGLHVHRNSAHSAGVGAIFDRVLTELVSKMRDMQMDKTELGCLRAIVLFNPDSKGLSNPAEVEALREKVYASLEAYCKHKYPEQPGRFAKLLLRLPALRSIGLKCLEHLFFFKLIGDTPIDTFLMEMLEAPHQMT
# Protocol Summary: Z3 assay: β-galactosidase reporter gene induction in HEK-293 clone Z3 (CVBE / 6XEcRE LacZ)
# Format: cell-based
# Condition Context: HEK293; 33 μM ligand, 48 h, RLU relative to DMSO; read-out: Fold Induction Average, Z3 assay
# Protocol: A synthetic ATG start codon was placed under the control of cytomegalovirus (CVBE) immediate early promoter and flanked by long terminal repeats (LTR). […] Dilution cloning was used to isolate individual clones. […] Individual clones were evaluated based on their response in the presence and absence of test ligands. […] Each assay was conducted in two separate wells, and the two values were averaged. […] EC50s were calculated from dose response data using a three-parameter logistic model.
Assign MET to entries whose fold induction at 33 µM meets or exceeds 2; assign NOT MET to the rest.

Item CCC1(C)ON=C(c2ccccc2)N1NC(=O)c1ccccc1 (stereo not drawn) with fold induction at 33 µM of 2 or above? NOT MET

Item CCc1ccc(C(=O)NN2C(c3ccc(OC(F)(F)F)cc3)=NOC2(C)C)cc1 with fold induction at 33 µM of 2 or above? NOT MET

Item Cc1cc(C)cc(C2=NOC(C)(C)N2NC(=O)Nc2ccccc2)c1 with fold induction at 33 µM of 2 or above? NOT MET

Item CCc1c(OC)cccc1C(=O)NN1C(c2cccc(C(F)(F)F)c2)=NOC1(C)C with fold induction at 33 µM of 2 or above? NOT MET

Item CCc1c(OC)cccc1C(=O)NN1C(c2ccc(OC)cc2OC)=NOC1(C)C with fold induction at 33 µM of 2 or above? NOT MET

Item CCc1ccc(C(=O)NN2C(c3ccccc3)=NOC2(C)CC)cc1 (stereo not drawn) with fold induction at 33 µM of 2 or above? MET

Item COc1cccc(C(=O)NN2C(c3cc(C)cc(C)c3)=NOC2(C)C)c1C with fold induction at 33 µM of 2 or above? MET

Item CCc1c(OC)cccc1C(=O)NN1C(c2cc(C)cc(C)c2)=NOC12CCCC2 with fold induction at 33 µM of 2 or above? MET

Item CCc1c(OC)cccc1C(=O)NN1C(c2ccc(OC(F)(F)F)cc2)=NOC1(C)C with fold induction at 33 µM of 2 or above? NOT MET

Item CCc1c(OC)cccc1C(=O)NN1C(c2ccc3c(c2)OCO3)=NOC1(C)C with fold induction at 33 µM of 2 or above? NOT MET

Item CCc1ccc(C(=O)NN2C(c3cc(C)cc(C)c3)=NOC23CCCC3)cc1 with fold induction at 33 µM of 2 or above? MET

Item CCc1ccc(C(=O)NN2C(c3ccc(OC)cc3OC)=NOC2(C)C)cc1 with fold induction at 33 µM of 2 or above? NOT MET
